- testMethodNotes: Determination of pharmacokinetic parameters after intravenous administration in rats
- Assay type: in vivo, rat
- assayContext: male, Wistar, rat, plasma, intravenous administration of 0.3 mg/kg, read-out: terminal half-life (converted)
Measured half-life, listed per entry for reference.

INSERT INTO measurements (compound, endpointresult) VALUES
  ('CC1(C)C(=O)Nc2nc(-c3nn(Cc4cccc(F)c4F)c4ncccc34)nnc21 [Example 27]', '5.6 h'),
  ('O=C1Nc2nc(-c3nn(Cc4ccccc4F)c4ncccc34)ncc2C1(O)C(F)(F)F (stereo not drawn) [Example 18]', '1.4 h');

Let us examine a further case.
Req: Item CC1(C)C(=O)Nc2nc(-c3nn(Cc4ccccc4F)c4ncccc34)ncc21 [Example 1] has what recorded half-life?
Resp: 0.9 h

* * *

- system: recombinant guanylate cyclase reporter cell line (Rattus norvegicus, UniProt P19686+P20595)
- Construct: expressed in transfected cells
- Sequence (P20595 whole entry): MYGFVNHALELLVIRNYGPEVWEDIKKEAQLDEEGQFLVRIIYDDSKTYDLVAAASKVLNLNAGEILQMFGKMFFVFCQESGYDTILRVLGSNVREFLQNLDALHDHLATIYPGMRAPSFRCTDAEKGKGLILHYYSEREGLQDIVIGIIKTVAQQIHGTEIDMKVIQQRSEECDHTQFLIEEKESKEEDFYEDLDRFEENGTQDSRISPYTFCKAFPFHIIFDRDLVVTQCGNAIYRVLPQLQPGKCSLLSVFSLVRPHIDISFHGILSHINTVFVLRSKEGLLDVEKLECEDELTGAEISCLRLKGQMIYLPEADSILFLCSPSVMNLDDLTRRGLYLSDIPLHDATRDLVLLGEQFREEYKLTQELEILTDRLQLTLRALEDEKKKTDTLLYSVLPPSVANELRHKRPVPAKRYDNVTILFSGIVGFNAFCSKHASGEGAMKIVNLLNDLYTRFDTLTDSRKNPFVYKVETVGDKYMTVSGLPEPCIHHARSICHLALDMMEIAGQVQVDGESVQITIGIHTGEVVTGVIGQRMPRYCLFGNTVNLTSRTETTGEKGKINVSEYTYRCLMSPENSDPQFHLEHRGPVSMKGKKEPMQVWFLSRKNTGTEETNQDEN
- Sequence (P19686 whole entry): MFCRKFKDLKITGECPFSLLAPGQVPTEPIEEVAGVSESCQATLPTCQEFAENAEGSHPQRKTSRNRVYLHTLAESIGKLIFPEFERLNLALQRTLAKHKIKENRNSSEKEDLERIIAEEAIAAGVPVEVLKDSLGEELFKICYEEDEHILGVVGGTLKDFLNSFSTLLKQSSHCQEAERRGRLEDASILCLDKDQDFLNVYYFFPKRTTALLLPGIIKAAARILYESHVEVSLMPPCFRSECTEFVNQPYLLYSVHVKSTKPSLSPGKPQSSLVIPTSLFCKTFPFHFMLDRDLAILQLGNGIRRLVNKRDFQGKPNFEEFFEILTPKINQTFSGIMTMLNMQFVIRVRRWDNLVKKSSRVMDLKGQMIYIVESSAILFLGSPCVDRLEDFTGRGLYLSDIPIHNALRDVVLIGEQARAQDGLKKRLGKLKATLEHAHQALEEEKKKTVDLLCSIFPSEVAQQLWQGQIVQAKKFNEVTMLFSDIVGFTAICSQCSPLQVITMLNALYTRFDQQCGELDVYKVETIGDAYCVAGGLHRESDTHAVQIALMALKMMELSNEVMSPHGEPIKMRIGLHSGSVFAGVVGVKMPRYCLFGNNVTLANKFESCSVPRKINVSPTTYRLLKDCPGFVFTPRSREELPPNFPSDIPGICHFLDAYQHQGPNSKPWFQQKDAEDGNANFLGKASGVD
- testMethodNotes: Action on recombinant guanylate cyclase reporter cell line
- Assay type: cell-based
- Experimental: B-2. Action on Recombinant Guanylate Cyclase Reporter Cell Line The cellular action of the compounds according to the invention is determined on a recombinant guanylate cyclase reporter cell line, as described in F. Wunder et al., Anal. Biochem. 339, 104-112 (2005).
Measured MEC (minimal effective concentration), listed per entry for reference.
Kindly provide the numeric value in µM only, without the unit symbol.

As a guide, the following entries are already answered.
INSERT INTO measurements (molecule, measuredendpoint, unitofmeasurement, endpointresult) VALUES
  ('O=C1Nc2nc(-c3nn(Cc4ccccc4F)c4ncccc34)ncc2C12CCOC2 (stereo not shown)', 'MEC (minimal effective concentration)', 'µM', 0.03),
  ('CC1(C)C(=O)Nc2nc(-c3nn(Cc4cccc(F)c4F)c4ncc(F)cc34)nnc21', 'MEC (minimal effective concentration)', 'µM', 0.03),
  ('CC1CC(=O)Nc2nc(-c3nn(Cc4ccccc4F)c4ncccc34)ncc21 (stereo not shown)', 'MEC (minimal effective concentration)', 'µM', 0.1),
  ('O=C1Cc2nnc(-c3nn(Cc4ccccc4F)c4ncccc34)nc2N1', 'MEC (minimal effective concentration)', 'µM', 0.03),
  ('CC1(C)C(=O)Nc2nc(-c3nn(Cc4ccc(F)cc4F)c4ncccc34)ncc21', 'MEC (minimal effective concentration)', 'µM', 0.1),
  ('CC1(C)C(=O)Nc2nc(-c3nn(Cc4ccc(F)cc4F)c4ncccc34)nnc21', 'MEC (minimal effective concentration)', 'µM', 0.3),
  ('COC(=O)NC1C(=O)Nc2nc(-c3nn(Cc4ccccc4F)c4ncccc34)ncc21 (stereo not shown)', 'MEC (minimal effective concentration)', 'µM', 0.3),
  ('COC(=O)C(C)(C)c1nnc(-c2nn(Cc3ccc(F)cc3F)c3ncccc23)nc1O [Example 77A]', 'MEC (minimal effective concentration)', 'µM', 1.0);

Req: Item CC1(F)C(=O)Nc2nc(-c3nn(Cc4ccccc4F)c4ncccc34)ncc21 (stereo not shown) has what recorded MEC (minimal effective concentration)?
Resp: 0.03

* * *

- testMethodNotes: Determination of pharmacokinetic parameters after intravenous administration in rats
- Format: in vivo, rat
- assayContext: male, Wistar, rat, plasma, intravenous administration of 0.3 mg/kg, read-out: mean residence time
measuredEndpoint: MRT (h)
Kindly provide the numeric value in h only, without the unit symbol.

INSERT INTO results (molecule, unitofmeasurement, endpointresult) VALUES
  ('CC1(C)C(=O)Nc2nc(-c3nn(Cc4ccccc4F)c4ncccc34)ncc21', 'h', 1.2);

Req: Item O=C1Nc2nc(-c3nn(Cc4ccccc4F)c4ncccc34)ncc2C1(O)C(F)(F)F (stereo not drawn) has what recorded MRT?
Resp: 1.9

Req: Item CC1(C)C(=O)Nc2nc(-c3nn(Cc4cccc(F)c4F)c4ncccc34)nnc21 has what recorded MRT?
Resp: 7.3

// provenance: patent US9216978B2
